Each record here notes measured Kd.
Molecular target: EGFR (Homo sapiens)
Construct: endogenous in cells; host or cells: Gli36Δ5 human glioblastoma cells
Experiment: Saturation binding assay of Cy5.5-labeled peptides on Gli36Δ5 cells
Conditions: 37° C., 90 minutes, read-out: apparent binding affinity Kd from saturation binding assay
metric-name: Kd (µM)

{"substance": "Cy5.5-(AEEA)1-YHWYGYTPQNVI-amide [Compound 2]", "metric-name": "Kd", "value-units": "µM", "numeric-value": 8.9}
{"substance": "Cy5.5-(AEEA)3-YHWYGYTPQNVI-amide [Compound 4]", "metric-name": "Kd", "value-units": "µM", "numeric-value": 123}
{"substance": "Cy5.5-YHWYGYTPQNVI-amide [Compound 1]", "metric-name": "Kd", "value-units": "µM", "numeric-value": 18.5}
{"substance": "Cy5.5-(AEEA)2-YHWYGYTPQNVI-amide [Compound 3]", "metric-name": "Kd", "value-units": "µM", "numeric-value": 64.4}
